# Tested on: MDA-MB-231 breast
# PROCEDURE_DETAILS: NCI tumour cell line growth inhibition, 48 h
TEST_READOUT: TGI (µM)
Give a bare numeral; the unit µM is implied.

Some molecules with known TGI results, for comparison:
# MOLECULE, TGI (µM)
data = [
    ("CN(C)CCNc1ccc([N+](=O)[O-])c2sc3ccccc3c(=O)c12", 9.39),
    ("CN1CCc2cc3c(c4c2C1C(O)c1ccccc1-4)OCO3 (stereo unspecified)", 22.5),
    ("Nc1cc2nc3ccccc3sc-2cc1=O", 11.8),
]

Now let's try a different one.
Entry O=[N+]([O-])c1cnc(Sc2ccncn2)s1 has what TGI?
15.1

---

# System: IGROV1 ovarian
# PROCEDURE_DETAILS: NCI tumour cell line growth inhibition, 48 h
Parameter: TGI. Scope: all listed entries.

# COMPOUND, TEST_READOUT, OBS_VALUE
records = [
    ("CC(C)(C)c1cc(C(=O)/C=C/c2c(Cl)cccc2Cl)cc(C(C)(C)C)c1O", "TGI", "> 100 µM"),
]

Entry N#CC(C#N)=c1ccc(=C2NCC3CCCN23)cc1 (configuration not stated) has what TGI?
> 100 µM

Entry COc1c2c(cc3c1C(=O)c1c(O)cccc1C3=O)CC(O)CC2 (configuration not stated) has what TGI?
> 100 µM

---

# Tested on: SK-MEL-5 melanoma
# PROCEDURE_DETAILS: NCI tumour cell line growth inhibition, 48 h
TEST_READOUT: GI50

# COMPOUND, OBS_VALUE
records = [
    ("O=C1/C(=C/c2ccc([N+](=O)[O-])cc2)COc2ccc(O)c(O)c21", "2120 nM"),
]

Entry CC(=O)[O][Hg][c]1c(N)c(C)cc(C)c1F has what GI50?
1480 nM

Entry CN(C)c1ccc(-c2cc(-c3ccc(Nc4nc(Nc5ccc(Cl)cc5)nc(Nc5ccc(Cl)cc5)n4)cc3)no2)cc1 has what GI50?
2070 nM

Entry CCCCCCCC(=O)SCC/C=C/[C@@H]1CC(=O)NCc2cccc(n2)C2=N[C@@](C)(CS2)C(=O)N[C@@H](C(C)C)C(=O)N1 has what GI50?
924 nM

---

# System: NCI/ADR-RES ovarian
# PROCEDURE_DETAILS: NCI tumour cell line growth inhibition, 48 h; in the data active = GI50 below about 0.43 µM; inactive = the rest
The reply should name one outcome from 1 (yes) (active), 0 (no) (inactive)

Consider the following illustrative entries.
# MOLECULE, ASSIGNED_LABEL
measured = [
    ("CN(C)CCCNC1=C(Cl)C(=O)c2ccccc2C1=O", "0 (no)"),
    ("O=C(Nc1ccc(I)cc1)c1cc([N+](=O)[O-])ccc1O", "0 (no)"),
    ("CC(C)c1ccc(C(C)C(=O)N(CC2=C(C(C)c3ccccn3)c3ccccc3C2)C(C)C)cc1 (stereo not drawn)", "0 (no)"),
    ("Cn1ccnc1C(=O)/C=C/c1ccc(CC(=O)Nc2ccc(Br)cc2)cc1", "0 (no)"),
    ("COc1ccc(C2=CSc3cc(Cl)c(C)cc3S(=O)(=O)N2C(C)=O)cc1", "0 (no)"),
    ("COc1cc2c(c(OC)c1O)C(=O)C(OC)C(c1ccc(O)c(O)c1)O2 (stereo not drawn)", "1 (yes)"),
]

What outcome does the record of this test show for CCc1ccc2c(c1)C(=O)c1c-2n(CCCBr)c(=O)c2cc([N+](=O)[O-])ccc12 ?
0 (no)

What outcome does the record of this test show for Cc1cnc(NC(=O)C(Cc2ccccc2)NC(=O)c2ccccc2)s1 (stereo not drawn) ?
0 (no)

---

Observed GI50 values for NCI-H460 lung are listed in what follows.

Some compounds with known GI50 results, for comparison:
# COMPOUND, OBS_VALUE
data = [
    ("Cc1cnc(NC(=O)C(Cc2ccccc2)NC(=O)c2ccccc2)s1 (centres undefined)", "3.54 µM"),
    ("CC(C)c1ccc(C(C)C(=O)N(CC2=C(C(C)c3ccccn3)c3ccccc3C2)C(C)C)cc1 (centres undefined)", "2.62 µM"),
    ("CC1=C(C#N)C23C(=O)c4ccccc4C(O)=C2C(=O)C=CC3(O)N1Cc1ccccc1 (centres undefined)", "30.3 µM"),
]

Now let's try a different one.
Recorded GI50 for Oc1ccc(Cl)cc1-c1cc(-c2ccccc2Cl)[nH]n1 with NCI-H460 lung, please?
3.47 µM

---

# System: KM12 colon
# PROCEDURE_DETAILS: NCI tumour cell line growth inhibition, 48 h
TEST_READOUT: TGI

# MOLECULE, TGI
data = [
    ("O=C1NC2(CCCCC2)C2CCCCC(O)C12 (configuration not stated)", "> 100 µM"),
    ("CN(C)c1ccc(-c2cc(-c3ccc(Nc4nc(Nc5ccc(Cl)cc5)nc(Nc5ccc(Cl)cc5)n4)cc3)no2)cc1", "25.3 µM"),
    ("O=C1c2ccccc2C(=O)c2sc(Nc3cccc(Cl)c3)nc21", "4.1 µM"),
]

Recorded TGI for COc1ccc2nc3cc(Cl)ccc3c(Sc3ccccc3[N+](=O)[O-])c2c1 with KM12 colon, please?
> 100 µM

Recorded TGI for NC(CSC(c1ccccc1)(c1ccccc1)c1ccc2c(c1)OCO2)C(=O)O (configuration not stated) with KM12 colon, please?
> 100 µM

Recorded TGI for CC(C)=CCCc1c(C)ccc2c1C(=O)C(=O)C(C(C)C)=C2 with KM12 colon, please?
> 22 µM

Recorded TGI for Cc1ccc2c(c1)[nH]c(=S)n2C=C(C(N)=O)C(N)=O with KM12 colon, please?
> 100 µM

Recorded TGI for FC(F)(F)c1ccc(C2SCc3nc4ccccc4n32)cc1 (configuration not stated) with KM12 colon, please?
> 100 µM

Recorded TGI for O=[S@@]1Nc2ccc(Br)cc2S1 with KM12 colon, please?
> 100 µM

Recorded TGI for CC(=O)Nc1oc(C)c(C)c1S(=O)(=O)c1ccc(Cl)cc1 with KM12 colon, please?
> 100 µM

---

Parameter: TGI. Scope: all listed entries.
# System: LXFL 529 NSCLC
# PROCEDURE_DETAILS: NCI tumour cell line growth inhibition, 48 h

# COMPOUND, STUDY_SYSTEM, TGI
records = [
    ("CCOC(=O)C1=C(C)CC2C(=O)OC(=O)C2C1(C)C (stereo unspecified)", "LXFL 529 NSCLC", "> 100 µM"),
    ("CCOC(=O)COc1cccc2c1C(=O)CCO2", "LXFL 529 NSCLC", "> 100 µM"),
    ("CC1(C)CCc2ccc(OCCC(=O)O)cc2O1", "LXFL 529 NSCLC", "> 100 µM"),
]

Recorded TGI for CCOC(=O)C(Sc1ccccc1)c1c(OC)cc(=O)oc1/C=[N+](/[O-])c1ccc(N(C)C)cc1 (stereo unspecified) with LXFL 529 NSCLC, please?
27.2 µM

Recorded TGI for COc1ccccc1NC(=O)CC(=O)n1nc(C)c(N=Nc2ccccc2C(=O)O)c1C with LXFL 529 NSCLC, please?
> 100 µM

Recorded TGI for Cc1cc(=O)[nH]c(NNC(C#N)c2cccc(O)c2)n1 (stereo unspecified) with LXFL 529 NSCLC, please?
> 100 µM

Recorded TGI for O=C1C2=C(SCCS2)C(=O)c2ccccc21 with LXFL 529 NSCLC, please?
3.02 µM

Recorded TGI for NC(CCc1nc(-c2ccc(Cl)cc2)cs1)C(=O)O (stereo unspecified) with LXFL 529 NSCLC, please?
> 100 µM

Recorded TGI for Nc1ccc(C(=O)N/C(=C\c2ccc3c(c2)OCO3)c2nc3[nH]c(=S)[nH]c(=O)c3[nH]2)cc1 with LXFL 529 NSCLC, please?
> 100 µM

Recorded TGI for COc1cccc(NC(=O)CC(=O)n2nc(C)c(N=Nc3ccccc3)c2C)c1 with LXFL 529 NSCLC, please?
> 100 µM

Recorded TGI for CC(C)=CCCc1c(C)ccc2c1C(=O)C(=O)C(C(C)C)=C2 with LXFL 529 NSCLC, please?
6.65 µM

---

Parameter: TGI. Scope: all listed entries.
# System: OVCAR-8 ovarian
# PROCEDURE_DETAILS: NCI tumour cell line growth inhibition, 48 h

Recorded TGI for O=C(O)C(Cc1ccccc1)N1C(=O)N/C(=C\c2ccc(F)cc2)C1=O (stereo not given) with OVCAR-8 ovarian, please?
> 100 µM

Recorded TGI for Cn1ccnc1C(=O)/C=C/c1ccc(CC(=O)Nc2ccc(Br)cc2)cc1 with OVCAR-8 ovarian, please?
> 16.7 µM

Recorded TGI for CN(CC(=O)N1CC(CCl)c2ccc([N+](=O)[O-])cc21)CC(=O)N1CC(CCl)c2ccc([N+](=O)[O-])cc21 (stereo not given) with OVCAR-8 ovarian, please?
> 100 µM

Recorded TGI for CSCCCN(CCCSC)CCCSC with OVCAR-8 ovarian, please?
> 100 µM

Recorded TGI for CCOC(=O)c1ncn2c1[nH]c(=S)c1ccccc12 with OVCAR-8 ovarian, please?
> 100 µM
